targetOrTestSystem: VEGFR1 (Homo sapiens)
Sequence (P17948 27-1338): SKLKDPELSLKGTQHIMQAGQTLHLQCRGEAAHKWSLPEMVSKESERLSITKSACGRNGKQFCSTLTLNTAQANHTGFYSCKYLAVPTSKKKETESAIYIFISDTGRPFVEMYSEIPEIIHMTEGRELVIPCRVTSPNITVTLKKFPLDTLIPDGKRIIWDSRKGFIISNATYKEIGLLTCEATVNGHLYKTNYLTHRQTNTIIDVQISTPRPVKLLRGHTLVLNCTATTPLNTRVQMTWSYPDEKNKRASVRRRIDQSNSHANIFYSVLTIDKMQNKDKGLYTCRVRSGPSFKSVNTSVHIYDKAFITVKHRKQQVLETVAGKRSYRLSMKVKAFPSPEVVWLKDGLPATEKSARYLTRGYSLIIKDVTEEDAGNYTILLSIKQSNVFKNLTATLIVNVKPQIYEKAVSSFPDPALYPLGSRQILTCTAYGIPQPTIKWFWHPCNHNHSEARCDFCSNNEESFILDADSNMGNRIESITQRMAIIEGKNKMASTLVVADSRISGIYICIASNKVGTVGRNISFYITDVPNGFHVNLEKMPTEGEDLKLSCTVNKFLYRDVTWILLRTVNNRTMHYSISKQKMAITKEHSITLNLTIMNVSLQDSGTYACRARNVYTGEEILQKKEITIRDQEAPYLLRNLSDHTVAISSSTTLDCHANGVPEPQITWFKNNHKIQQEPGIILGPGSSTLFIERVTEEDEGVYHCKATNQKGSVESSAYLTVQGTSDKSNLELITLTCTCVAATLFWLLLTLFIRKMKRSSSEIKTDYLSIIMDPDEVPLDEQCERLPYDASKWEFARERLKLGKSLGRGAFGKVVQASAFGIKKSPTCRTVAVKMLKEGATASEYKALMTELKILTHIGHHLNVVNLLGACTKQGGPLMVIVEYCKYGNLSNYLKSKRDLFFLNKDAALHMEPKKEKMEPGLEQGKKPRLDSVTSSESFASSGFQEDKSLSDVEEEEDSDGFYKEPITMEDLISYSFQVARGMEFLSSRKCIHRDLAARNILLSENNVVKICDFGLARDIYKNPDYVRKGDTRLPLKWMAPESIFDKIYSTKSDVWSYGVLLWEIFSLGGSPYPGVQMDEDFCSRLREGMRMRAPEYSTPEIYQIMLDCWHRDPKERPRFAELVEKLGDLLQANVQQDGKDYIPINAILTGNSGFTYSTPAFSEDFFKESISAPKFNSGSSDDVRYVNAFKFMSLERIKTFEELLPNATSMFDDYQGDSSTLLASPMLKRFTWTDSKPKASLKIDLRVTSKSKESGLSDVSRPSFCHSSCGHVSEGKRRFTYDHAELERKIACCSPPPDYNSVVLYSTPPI
pIC50: −log10 of the molar value. Where a name gives a salt, the structure may show the parent alone.
assayReadout: pIC50

molecule: [2H]C([2H])([2H])OC([2H])([2H])CNCc1ccc(-c2cc3nccc(Oc4ccc(NC(=O)C5(C(=O)Nc6ccc(F)cc6)CC5)cc4F)c3s2)nc1 [Hydrochloride of 002]
testResult: 8.15

molecule: [2H]C([2H])([2H])OCCNCc1ccc(-c2cc3nccc(Oc4ccc(NC(=O)C5(C(=O)Nc6ccc(F)cc6)CC5)cc4F)c3s2)nc1 [Trifluoroacetate of 001]
testResult: 7.98
